Observation Type: melting point (°C)

Observe how each entry below is paired with its result.
In [3]: df
Out[3]:
                                   compound    val
0                            CC1(C)CCCCC1=O  -20.5
1  CC1=NN(c2ccccc2)C(=O)C1C(=O)C(F)(F)F (stereo not drawn)    143
2                CC(=O)Nc1nc(O)c2nc[nH]c2n1    260
3                   COc1cc(OC)cc(C(=O)Cl)c1     43

[I] Cc1cc(C(F)(F)F)c(C#N)c(=S)[nH]1
[II] O=C(O)C(O)(O)C(O)(O)C(=O)O
[III] CCCCCCCCCCCCc1ccccc1
Ascending sort, melting point. Present the labels in the sequence the task asks for.
III, II, I

[A] CCOC(=O)c1nn(-c2ccc(F)cc2)c(-c2cccs2)c1S(=O)(=O)c1ccccc1
[B] CCCCCCCC(=O)OCCCCCC
[C] CC(=O)C(C)O (stereo not drawn)
Place the items in sequence of falling melting point. Write out the labels following the order that was asked for.
A, C, B
(A: 151 °C, C: 15 °C, B: -30.6 °C)

[P] O=C(c1ccc2ccccc2c1)c1noc(-c2ccc([N+](=O)[O-])cc2)c1S(=O)(=O)c1ccccc1
[Q] Clc1cc(Cl)c2c(c1)oc1cc(Cl)cc(Cl)c12
Hey, between P and Q which has a smaller measured melting point? Give the label under which the chosen entry appears.
P

[a] NNC(=O)c1ccc(N)cc1O
[b] CSc1nc2ccccc2s1
Given the listed records, identify the one among a and b with higher melting point. Respond using the label that marks the chosen record.
a
(a: 195 °C, b: 44 °C)

* * *

Documented melting point across a set of compounds

Here is how some compounds turned out for melting point.
                                   compound  observation_type          val
0                            OCCNc1nccnc1Cl     melting point  54 to 58 °C
1                 ClCc1nnc(-c2ccc(Cl)cc2)o1     melting point  81 to 85 °C
2  CON(/C=C1\C(=O)C2(C)CCC1C2(C)C)c1ccccc1 (centres undefined)     melting point  75 to 76 °C

Which value of melting point has been reported for CCOC(=O)c1c(-c2ccc(F)cc2)csc1N in the records?
92.5 to 95.5 °C

* * *

Observation Type: melting point

Solved entries:
In [3]: df
Out[3]:
                                structure            val
0  CCOC(=O)c1cc2cccc([N+](=O)[O-])c2[nH]1    90 to 96 °C
1                  Cn1ccc2cc(C(=O)O)ccc21  221 to 223 °C

I would be grateful if you could share the reported melting point for Clc1ccc(Cc2c(N=Cc3ccccc3)n[nH]c2N=Cc2ccccc2)cc1 .
180 to 182 °C

// query melting point value for entry OCCOc1ccccc1OCCO
78 to 82 °C

* * *

Known melting point of a selection of compounds

>>> df
                                  structure  observation_type            val
0  CC(=O)O[C@@H]1[C@@H](OC(C)=O)[C@H](C)O[C@@H](OCc2ccccc2)[C@@H]1OC(C)=O     melting point  110 to 113 °C

Okay, now this compound:
Which measured melting point value corresponds to NC(=O)C1(C(=O)O)CC1 ?
184 to 189 °C

* * *

Below: a set of entries, each annotated with reported melting point.

These solved cases illustrate the format of a correct answer.
                                   compound  observation_type            val
0  CCC12CCCN3CCc4c(n(c5ccccc45)C(=O)C1)C32 (single isomer, unassigned; (-))     melting point  173 to 177 °C
1            O=C=Nc1ccc(F)c([N+](=O)[O-])c1     melting point    27 to 28 °C
2        Cn1c2ccccc2c2cc([N+](=O)[O-])ccc21     melting point  172 to 174 °C
3            O=C(O)Cc1ccccc1Nc1c(Cl)cccc1Cl     melting point         157 °C

Please examine the following record next.
Can you share its melting point? I mean this compound: Cc1cc(C)c(C2(C)CC(C(=NNC(N)=O)c3cc4cc(Br)ccc4o3)C2)c(C)c1 (stereo not given)
230 to 232 °C

* * *

Observation Type: melting point (°C)

>>> df
                                   molecule   val
0  CCOc1ccc(N=C(CNc2ccc(OCC)cc2)Nc2ccc(OCC)cc2)cc1   113
1                     CC1c2ccccc2-c2ccccc21  46.5
2  COC(=O)c1ccccc1S(=O)(=O)NC(=O)N(C)c1nc(C)nc(OC)n1   142
3     O=C1C2=C(C(=O)c3ccccc31)C1(CC1)C21CC1   103
4          O=c1cc(-c2ccccc2)cc(-c2ccccc2)o1   137
5  CCCCCCCCCCCCOc1ccc(N=Cc2ccc(N(C)C)cc2)cc1  94.5
6          CCN(CC)CN1C(=O)C(=Cc2ccco2)SC1=S   145
7  COc1cc(-c2coc3cc(O)c(OC)c(O)c3c2=O)cc(O)c1OC   185

[I] Cc1c2ccccc2cc2ccc3ccccc3c12
[II] Cc1cccc(C(=O)N(NC(=O)c2ccccc2)C(C)(C)C)c1
[III] O=C(Cl)c1ccc(Cl)c(Cl)c1
[IV] CC(C)(C)c1ccc(S)cc1
[V] C=CCOC(=O)CC(C)=O
Sort these molecules on melting point so the largest reading comes first. Form field (ranking): labels in requested order.
II, I, III, IV, V
(II: 211 °C, I: 138 °C, III: 32 °C, IV: -11 °C, V: -85 °C)

[I] CC1CCc2cc3c(cc2N1C(=O)c1ccccc1)CCC(C)N3C(=O)c1ccccc1 (stereo not given)
[II] Clc1ccc2cc(Cl)ccc2c1
# returns the entry with the larger melting point; inputs I and II Respond using the label that marks the chosen record.
I
(I: 270 °C, II: 140 °C)

[A] NC(Cc1ccc(O)c(O)c1)C(=O)O (stereo not given)
[B] Cc1cnc(C(=O)O)c[n+]1[O-]
Thinking about recorded melting point values, which is higher, A or B ? Returns: label corresponding to the selected item.
A

* * *

Observation Type: melting point (°C)

Below are worked cases with known answers.
>>> df
                                   molecule  val
0  N#Cc1cc(/N=C/C=C/c2ccccc2)n(-c2c(Cl)cc(C(F)(F)F)cc2Cl)n1  160
1                             N=C(N)NC(N)=S  172
2                          Brc1cccc2cnccc12   82

[a] O=[N+]([O-])c1ncccc1Cl
[b] CCS(=O)(=O)CCO
[c] COc1ccc(C=NNC(=O)c2ccncc2)cc1OC
[d] CCOC(=O)c1cc(C)on1
Please order the records by their reported melting point, lowest number first. Labels, requested order.
d, b, a, c

[I] COc1ccc(CN2CCc3ccccc3C2)cc1O
[II] O=C1OCCN1N=Cc1ccc([N+](=O)[O-])o1
Select the item whose melting point value is smaller, choosing between I and II . Kindly state the label of the option you pick.
I

[1] O=C1CCC(c2ccccc2)(C2CCN(Cc3ccccc3)CC2)C(=O)N1 (stereo unspecified)
[2] O=Cc1cccc2ccnn12
From the recorded data, which exceeds the other in melting point: 1 or 2 ? State your choice using its label.
1
(1: 156 °C, 2: 85 °C)

[1] O=C1CC(c2ccccc2)Oc2ccccc21 (stereo unspecified)
[2] O=C(O)C=Cc1ccc(F)cc1C(F)(F)F
Of the two listed items, 1 and 2 , which carries the larger melting point figure? // return label of chosen record
2

* * *

Observation Type: melting point (°C)

Recorded melting point, per entry:
>>> df
                                   molecule  unit_string  val
0  CC(C)c1cc(C(C)C)c(S(=O)(=O)N=[N+]=[N-])c(C(C)C)c1           °C   42
1                      NC(=O)c1ccc(Cl)cc1Cl           °C  192
2  N#CC1=C(N)Oc2c(Br)cc(Br)cc2C1C(C#N)C#N (stereo unspecified)           °C  300
3  Cc1cc(Cl)ccc1OC(C)C(=O)Nc1ccc2nc(SCc3ccccc3)sc2c1 (stereo unspecified)           °C  168
4                    c1ccc2c(c1)ccc1ncccc12           °C   94
5            O=c1cc(-c2ccccc2)oc2cccc(O)c12           °C  158
6                        C=C(C)CCCCCCCCCCCC           °C  -15
7                                    CCCCNC           °C  -75
8  CCC1COC(Cn2cncn2)(c2ccc(Cl)cc2Cl)O1 (stereo unspecified)           °C   84
9  O=C(/C=C/c1ccc(OCC2CO2)cc1)c1ccccc1 (stereo unspecified)           °C   92

[1] CC(C)(C)C(O)C(Cc1ccc(Cl)cc1)n1cncn1 (stereo unspecified)
[2] O=S(=O)(Cl)Cc1ccccc1
[3] O=C1Cc2ccccc2O1
Given 3 molecules, produce a descending ranking by melting point. Give the labels in the order requested.
1, 2, 3
